All figures here come from ChEMBL document CHEMBL1201862.

tested on: DMS-273; assay: NCI tumour cell line growth inhibition, 48 h
Activity calls are given as the source filed them. Cut-off read from the data, not from the text of the source: active = GI50 up to about 1.1 µM and inactive = higher.

MOLECULE: O=C(CC(=O)N1N=C(c2ccccc2)C(/N=N/c2ccc(C(=O)O)cc2)C1=O)Nc1ccc(F)cc1 (stereo not given)
TESTED ON: DMS-273
GI50: 27.2 µM (inactive)
--
MOLECULE: Cc1ccc2c(c1)-c1c3c(nn1C)-c1ccccc1SC3O2 (stereo not given)
TESTED ON: DMS-273
GI50: 55.5 µM (inactive)
--
MOLECULE: O=C1c2ccccc2C(=O)c2c1ccc1c3ccccc3n(-c3ccccc3)c21
TESTED ON: DMS-273
GI50: 18.6 µM (inactive)
--
MOLECULE: CC1=NN(C(=O)c2ccc([N+](=O)[O-])cc2)C(=O)C1/N=N/c1ccccc1C(=O)O (stereo not given)
TESTED ON: DMS-273
GI50: > 100 µM (inactive)
--
MOLECULE: Cc1cc(=O)cc2sc3c(C)cccc3nc1-2
TESTED ON: DMS-273
GI50: 83.6 µM (inactive)

====

tested on: COLO 205; assay: NCI tumour cell line growth inhibition, 48 h
Activity calls are given as the source filed them. Rule as the data show it: active = GI50 up to about 1.1 µM and inactive = higher.
compounds and their reported GI50

COMPOUND: Cc1cc2c(=O)cc(-c3ccc(O)cc3)oc2c(C(=O)O)c1C
GI50: > 100 µM (inactive)

COMPOUND: COc1ccc2c(c1)c(Cc1c(C)n(C)c3ccc(OC)cc13)c(C)n2C
GI50: > 100 µM (inactive)

COMPOUND: C=CCc1cccc2cc(C(=O)Nc3nc(C45CC6CC(CC(C6)C4)C5)cs3)c(=O)oc12
GI50: 21.4 µM (inactive)

COMPOUND: CCOC(=O)c1[nH]cc(C)c1-c1c[nH]c2ccccc12
GI50: 15.4 µM (inactive)

COMPOUND: CC(C)(C)OC(=O)NC(Cc1ccc(OCc2ccccc2)cn1)C(=O)N1CCSCC1 (stereo not given)
GI50: 18.6 µM (inactive)

====

compounds and their reported GI50
test system: DU-145; assay: NCI tumour cell line growth inhibition, 48 h
The source made the active and inactive calls. No stated cut-off is given here; in the data, active = GI50 up to about 1.1 µM and inactive = higher.
PROPERTY LABEL: GI50

COMPOUND: C#CC(C)(C)Oc1cc(OC)c2c(=O)c3ccccc3n(C)c2c1
EXPERIMENTAL VALUE: 12.4 µM (inactive)
//
COMPOUND: [N-]=[N+]=Nc1c([N+](=O)[O-])c(=O)n(-c2ccccc2)c2ccccc12
EXPERIMENTAL VALUE: 35.2 µM (inactive)
//
COMPOUND: O=C(O)C1CC(C2CCCCN2)CN2CCCCC12 (stereo unspecified)
EXPERIMENTAL VALUE: > 100 µM (inactive)
//
COMPOUND: Cc1cc(Oc2cnc(=O)[nH]c2)cs1
EXPERIMENTAL VALUE: > 100 µM (inactive)
//
COMPOUND: Cc1cc(Cl)nc(Nc2nc3ccccc3[nH]2)n1
EXPERIMENTAL VALUE: > 100 µM (inactive)
//
COMPOUND: CCN(CC)c1ncnc2c1ncn2CCNC(CO)(CO)CO
EXPERIMENTAL VALUE: > 100 µM (inactive)
//
COMPOUND: CC[C@@]1(O)C(=O)OCc2c1cc1n(c2=O)Cc2c-1nc1ccccc1c2/C=N\NC(=O)C(N)Cc1ccc(O)cc1 (stereo partly specified)
EXPERIMENTAL VALUE: 0.331 µM (active)
//
COMPOUND: CN(C)CCNC(=O)c1cccc2nc3c(nc12)-c1ccccc1C3=O
EXPERIMENTAL VALUE: 29.9 µM (inactive)
//
COMPOUND: CCOC(=O)c1[nH]cc(C)c1-c1c[nH]c2ccccc12
EXPERIMENTAL VALUE: 45 µM (inactive)
//
COMPOUND: O=C(O)C[S+]([O-])c1ccc2c3c(cccc13)C(=O)c1ccccc1-2 (stereo unspecified)
EXPERIMENTAL VALUE: > 100 µM (inactive)
//
COMPOUND: O=c1[nH]c(N/N=C\C(=N/Nc2nc3ccccc3c(=O)[nH]2)C(O)C(O)C(O)CO)nc2ccccc12 (stereo unspecified)
EXPERIMENTAL VALUE: > 100 µM (inactive)
//
COMPOUND: Nc1nc(N)c2nc(CNc3ccc(C(=O)NC(CCCNC(=O)c4ccccc4C(=O)O)C(=O)O)cc3)cnc2n1 (stereo unspecified)
EXPERIMENTAL VALUE: 0.01 µM (active)
//
COMPOUND: CN(C)C(=S)C(Cl)(c1ccccc1)c1ccccc1
EXPERIMENTAL VALUE: 40.6 µM (inactive)
//
COMPOUND: COc1cc2cc(C(=O)N3CC(CCl)c4ccc(NCCN)cc43)[nH]c2c(OC)c1OC (stereo unspecified)
EXPERIMENTAL VALUE: 0.08 µM (active)
//
COMPOUND: COc1ccc2c(C)c(Oc3c(Cl)c(Cl)c(O)c(C#N)c3C#N)oc2c1
EXPERIMENTAL VALUE: > 100 µM (inactive)
//
COMPOUND: COc1cc2c(c(OC)c1OC)-c1ccc(SC)cc1C(O)CC2 (stereo unspecified)
EXPERIMENTAL VALUE: < 0.01 µM (active)
//
COMPOUND: CC1CC(C)CN(S(=O)(=O)c2cc(Cl)c(Oc3ccc([N+](=O)[O-])cc3Cl)c(Cl)c2)C1 (stereo unspecified)
EXPERIMENTAL VALUE: > 100 µM (inactive)
//
COMPOUND: COc1ccc(NC(=O)/C(CC2=Nc3ccc([N+](=O)[O-])cc3NC2O)=N\NC(=O)C[N+](C)(C)C)c(OC)c1 (stereo unspecified)
EXPERIMENTAL VALUE: 47.3 µM (inactive)
//
COMPOUND: C=Cc1ccccc1C1(O)C=CC(OC)(OC)C=C1
EXPERIMENTAL VALUE: 20.4 µM (inactive)
//
COMPOUND: N#C/N=C1/c2ccccc2/C(=N/C#N)c2cc(CO)ccc21
EXPERIMENTAL VALUE: 26 µM (inactive)
//
COMPOUND: N#Cc1c(N)nc(SCc2ccccc2)c(C#N)c1-c1ccc(O)cc1
EXPERIMENTAL VALUE: 13.5 µM (inactive)

====

test system: MCF7; experiment: NCI tumour cell line growth inhibition, 48 h
Activity calls are given as the source filed them. No stated cut-off is given here; in the data, active = GI50 up to about 1.1 µM and inactive = higher.

MOLECULE: N#C/N=C1/c2ccccc2/C(=N/C#N)c2cc(CO)ccc21
GI50: 30.6 µM (inactive)

MOLECULE: Cc1nc2c(=O)[nH]c3ccc(Cl)cc3c2o1
GI50: > 100 µM (inactive)

MOLECULE: CCCCCCCCCCCC(=O)N(CCCCCCCCCCC(=O)O)CC(O)C(O)C(OC1OC(CO)C(O)C(O)C1O)C(O)CO (stereo not given)
GI50: > 100 µM (inactive)

MOLECULE: COCCN(C(=O)c1ccccc1)C1CCC2(SCCS2)c2[nH]c3ccccc3c21 (stereo not given)
GI50: 37.5 µM (inactive)

MOLECULE: O=C1C(/C=C/c2ccc(Cl)cc2)=NNC2N1N=C1NC(=O)C3(NN12)c1ccccc1-c1ccccc13 (stereo not given)
GI50: 26.5 µM (inactive)

====

compounds and their reported GI50
system: HCC 2998; experiment: NCI tumour cell line growth inhibition, 48 h
Calls of active or inactive are those of the source. Cut-off read from the data, not from the text of the source: active = GI50 up to about 1.1 µM and inactive = higher.

COMPOUND: CN(O)C(=S)c1ccccc1
GI50: 6.34 µM (inactive)

COMPOUND: O=C(O)/C=C\C(=O)Nc1ccc2c(c1)-c1ccccc1C2
GI50: 36.7 µM (inactive)

COMPOUND: O=C(O)CCc1nc(-c2ccccc2-n2cccc2)no1
GI50: > 100 µM (inactive)

COMPOUND: C=C1CCCC(C)(C)C1CCC1(C)CCC(C(C)C(=O)OC)OO1 (stereo unspecified)
GI50: 4.37 µM (inactive)

COMPOUND: CC(C)NC(=O)OCc1c(COC(=O)NC(C)C)c(-c2cc[n+](COC(=O)CC(C)(C)C)cc2)n2c1CCC2
GI50: > 100 µM (inactive)

COMPOUND: Cc1ccc(S(=O)(=O)N2CCN(C=S)CC2)cc1
GI50: > 100 µM (inactive)

COMPOUND: CCN(CC)C(=O)Cn1c(-c2ccccc2)cc2ccccc21
GI50: 78.7 µM (inactive)

COMPOUND: C=C(CN(CC(=C)C(=O)c1ccccc1)C(C)(C)C)C(=O)c1ccccc1
GI50: 19 µM (inactive)

COMPOUND: Cc1[nH]n(-c2nc3c(c(=O)[nH]2)CCCC3)c(=O)c1CCO
GI50: > 100 µM (inactive)

COMPOUND: NNC(=O)c1c(-c2cccnc2)cnc2ccccc12
GI50: > 100 µM (inactive)

COMPOUND: OCCSCC(O)Cn1cnc2c(O)nc(Nc3ccccc3)nc21 (stereo unspecified)
GI50: > 100 µM (inactive)

====

test system: OVCAR-3; experiment: NCI tumour cell line growth inhibition, 48 h
Active and inactive are the calls of the source. Rule as the data show it: active = GI50 up to about 1.1 µM and inactive = higher.

MOLECULE: CCOCCOC(=O)C1CCC(=O)N1CN(C(C)=O)c1cc(OC)ccc1OC (stereo not given)
TESTED ON: OVCAR-3
GI50: > 100 µM (inactive)

MOLECULE: CC1(C)OP(=O)(O)C=C1Sc1ccc([N+](=O)[O-])cc1[N+](=O)[O-]
TESTED ON: OVCAR-3
GI50: > 100 µM (inactive)

MOLECULE: CCCCCC/C=C1\CCC(CN2CCOCC2)C1=O (stereo not given)
TESTED ON: OVCAR-3
GI50: 18.5 µM (inactive)

MOLECULE: O=S(=O)(O)c1ccc2c(/N=N/c3ccc(S(=O)(=O)O)c4ccccc34)c(O)c(S(=O)(=O)O)cc2c1
TESTED ON: OVCAR-3
GI50: > 100 µM (inactive)

MOLECULE: CC(C)(C)OC(=O)CN1C(=O)CC1CC(=O)c1ccccc1 (stereo not given)
TESTED ON: OVCAR-3
GI50: 18.4 µM (inactive)

MOLECULE: CNc1ccc(Cl)cc1C(=O)N1CCC[C@H]1CO
TESTED ON: OVCAR-3
GI50: > 100 µM (inactive)

MOLECULE: O=C1C=C2CC[C@H]3[C@@H]4CC[C@H](Oc5c6ccccc6nc6ccccc56)[C@H]4CC[C@@H]3[C@H]2CC1
TESTED ON: OVCAR-3
GI50: 42.6 µM (inactive)

MOLECULE: COc1ccc(C(O)C(c2ccc(OCc3ccccc3)cc2)c2ccc(OCc3ccccc3)cc2)cc1 (stereo not given)
TESTED ON: OVCAR-3
GI50: > 100 µM (inactive)

MOLECULE: O=C(COc1ccc(/C=C/C(=O)c2ccc(Cl)cc2)cc1)Nc1c(Cl)cccc1Cl
TESTED ON: OVCAR-3
GI50: > 100 µM (inactive)

MOLECULE: OCCSCC(O)Cn1cnc2c(O)nc(Nc3ccccc3)nc21 (stereo not given)
TESTED ON: OVCAR-3
GI50: > 100 µM (inactive)
